B1: NCK2 (parent)
chain: YVERKNSLKKGSLVKNLKDTLGLG

# Variants of: B1
# run description: protein stability index of a GFP-peptide fusion (GPS, HEK-293T) (PSI 1-6); higher = more stable;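 also: lentivirally expressed fusions sorted by FACS into six bins by GFP to DsRed ratio, PSI derived from sequencing read proportions per bin multiplied by bin number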
# condition set: c terminus: a fixed tail appended
// reported protein stability index per item
reported property: protein stability index

> print(dat)
    residue.change        reported.property  experimental.value
 1            G24D  protein stability index                 2.8
 2            L23T  protein stability index                2.64
 3            K18P  protein stability index                2.56
 4            S12L  protein stability index                1.64
 5            N16F  protein stability index                2.69
 6            S12H  protein stability index                1.98
 7             V2K  protein stability index                3.67
 8            N16Q  protein stability index                1.97
 9             E3S  protein stability index                2.23
10            L23R  protein stability index                2.89
11             S7E  protein stability index                 2.9
12            G24S  protein stability index                2.58
13            L23V  protein stability index                2.57
14            G24Y  protein stability index                1.67
15            L17Q  protein stability index                3.16
16             K5P  protein stability index                1.89
17            G11F  protein stability index                2.69
18            L21G  protein stability index                2.49
19            V14Q  protein stability index                2.74
20            G22F  protein stability index                2.86
21            N16H  protein stability index                2.28
22            N16T  protein stability index                2.41
23            G22N  protein stability index                2.46
24             R4T  protein stability index                1.78
25            K10G  protein stability index                1.93
26            G24T  protein stability index                2.36
27            L23G  protein stability index                2.94
28             K5V  protein stability index                 2.2
29            G22E  protein stability index                2.34
30             K5F  protein stability index                2.58
31             L8K  protein stability index                2.47
32            K18T  protein stability index                2.65
33            G22Y  protein stability index                2.33
34            L23P  protein stability index                2.97
35            L21I  protein stability index                2.42
36             R4L  protein stability index                1.57
37            G24W  protein stability index                1.97
38            L21T  protein stability index                2.44
39             L8W  protein stability index                1.89
40            K10V  protein stability index                2.04
41             Y1V  protein stability index                3.41
42             K9E  protein stability index                2.59
43            L21E  protein stability index                2.74
44            L23W  protein stability index                2.44
45             R4V  protein stability index                1.78
46            D19K  protein stability index                1.91
47            T20I  protein stability index                3.27
48             N6H  protein stability index                2.61
49            L17C  protein stability index                2.55
50             N6W  protein stability index                2.32
51             K9F  protein stability index                3.15
52            K10S  protein stability index                2.31
53             L8S  protein stability index                1.99
54             E3R  protein stability index                2.52
55            G11P  protein stability index                2.11
56            T20P  protein stability index                2.21
57             S7L  protein stability index                2.43
58             S7Q  protein stability index                2.15
59            D19N  protein stability index                2.84
60             E3H  protein stability index                1.72
61            T20N  protein stability index                2.62
62             S7C  protein stability index                2.22
63            K15S  protein stability index                2.26
64            N16V  protein stability index                1.83
65            N16M  protein stability index                 1.3
66            G24N  protein stability index                1.98
67             V2T  protein stability index                3.44
68             K5H  protein stability index                2.13
69            V14W  protein stability index                1.89
70             K9I  protein stability index                2.51
71            G24R  protein stability index                2.19
72             Y1E  protein stability index                4.06
73            K15I  protein stability index                1.77
74             V2R  protein stability index                3.41
75             R4Q  protein stability index                 2.2
76            G11T  protein stability index                2.06
77            L21H  protein stability index                 2.3
78             V2M  protein stability index                2.81
79            G24E  protein stability index                3.21
80             S7H  protein stability index                2.02
81             E3G  protein stability index                1.41
82            L21P  protein stability index                2.39
83            D19Y  protein stability index                1.49
84             N6Y  protein stability index                1.64
85             S7N  protein stability index                2.07
86            G22Q  protein stability index                2.31
87            D19M  protein stability index                 2.6
88            K15D  protein stability index                 2.7
89             V2H  protein stability index                2.66
90             V2G  protein stability index                3.19
91             K5L  protein stability index                1.51
